- Protocol details: pNA assay: protease activity with 1 mM Cu2+ relative to control without Cu2+
- Type: biochemical
- Assay context: activity with 1 mM Cu2+ relative to control without Cu2+; enzyme 1 mg/l; Suc-AAPF-pNA; pH 7, 25° C.
Endpoint name: Relative Activity
Field format: numeric only.

Recorded Relative Activity, per entry:
>>> experimental_value("Brachysporiella protease: protease from Brachysporiella gayana CGMCC 0865, amino acids 1-186 of SEQ ID NO: 14 (protein, listed as Brachysporiella gayana) MELTSLIAALAVILPIAYGVPMDATTNLSPKVLAAMKRDLGLDAREATARVTFERRAGDVIEELRSSLGDSFAGAWVTDGKVINIGVTDQALVSKVKEAGAEPMVMKNSLGKLQEAKKKLDQIIKEKPKTLSTSGKPGIATYYVDIETNKLIITALSTSITQAEDLAKEVGLSESEFEVRKTEKMP")
0.695
>>> experimental_value("Protease 10: known protease derived from Nocardiopsis sp. NRRL 18262, amino acids 1-188 of SEQ ID NO: 2 (protein) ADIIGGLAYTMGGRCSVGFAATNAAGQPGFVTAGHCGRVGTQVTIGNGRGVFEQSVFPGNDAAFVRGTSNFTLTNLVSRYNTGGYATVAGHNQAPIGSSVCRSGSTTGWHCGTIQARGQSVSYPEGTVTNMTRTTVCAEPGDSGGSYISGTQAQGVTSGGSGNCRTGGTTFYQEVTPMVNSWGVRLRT")
0.657

Next, consider the following molecule.
INPUT: Reported Relative Activity, molecule Protease 11: protease from Nocardiopsis prasina DSM 15648, amino acids 1-188 of SEQ ID NO: 6 (protein, listed as Nocardiopsis prasina) ATGPLPQSPTPEADAVSMQEALQRDLGLTPLEADELLAAQDTAFEVDEAAAAAAGDAYGGSVFDTETLELTVLVTDAASVEAVEATGAGTELVSYGIEGLDEIIQDLNAADAVPGVVGWYPDVAGDTVVLEVLEGSGADVSGLLADAGVDASAVEVTSSAQPELYADIIGGLAYTMGGRCSVGFAATN : ____
OUTPUT: 0.691
